Tested on: OVCAR3 cells
Assay: Cell proliferation study (Cell Titer Glo, 72 h)
Assay type: cell-based
Conditions: Homo sapiens, OVCAR-3, luminescence, read-out: IC50, inhibitory effect on cellular proliferation
pIC50: −log10 of the molar value.
QUANTITY: pIC50

compound="CC(C)N1CCOc2c(F)cc(-c3nc(Nc4ccc(S(=O)(=O)NCCOCc5cn(CCOCCOCCNc6cccc7c6C(=O)N(C6CCC(=O)NC6=O)C7=O)nn5)cc4)ncc3F)cc21 (stereo not drawn)" result="< 5.00"
compound="Cc1nc2c(F)cc(-c3nc(Nc4ccc(S(=O)(=O)C5CCN(C6CCN(C7CN(c8cc9c(cc8F)C(=O)N(C8CCC(=O)NC8=O)C9=O)C7)CC6)CC5)cc4)ncc3F)cc2n1C(C)C (stereo not drawn)" result="> 7.00"
compound="C[C@@]1(O)CCC[C@H]1n1c(=O)ccc2cnc(NC3CCN(S(=O)(=O)C4CCN(C(=O)CC5CCN(c6cc7c(cc6F)C(=O)N(C6CCC(=O)NC6=O)C7=O)CC5)CC4)CC3)nc21 (stereo partly drawn)" result="5.30 to 6.00"

Where do the numbers come from? From patent US20240050577A1.
